- Tested on: HOP-92 NSCLC
- experiment: NCI tumour cell line growth inhibition, 48 h
assay-readout: TGI (µM)
Response body: numeric value in µM, unit text excluded.

Some compounds with known TGI results, for comparison:
compound: OC1CCC(C2C3CCCCC3C3CCCCC3C2C2CCC(O)CC2)CC1 (configuration not stated)
assay-readout: TGI
unit-info: µM
value-measured: 98.9
//
compound: CCC(=O)N1C/C(=C/c2ccc(OC)cc2)C(=O)/C(=C/c2ccc(OC)cc2)C1
assay-readout: TGI
unit-info: µM
value-measured: 7.77
//
compound: c1ccc2c(c1)SC1Sc3ccccc3[S+]21 (configuration not stated)
assay-readout: TGI
unit-info: µM
value-measured: 69.9
//
compound: CCn1c2c(c3c(C(=O)OC)c(O)ccc31)C(=O)c1ccccc1C2=O
assay-readout: TGI
unit-info: µM
value-measured: 32.8
//
compound: c1ccc2c(NCCCCCCCCNc3c4ccccc4nc4ccccc34)c3ccccc3nc2c1
assay-readout: TGI
unit-info: µM
value-measured: 2.87

Fill in the recorded TGI for this compound, with HOP-92 NSCLC as test system: c1cc(-c2sc(-c3ccncc3)c(-c3ccncc3)c2-c2ccncc2)ccn1
29.6

Fill in the recorded TGI for this compound, with HOP-92 NSCLC as test system: O=C1Cc2c(-c3ccccc3)cc(-c3cccc(Cl)c3)nc2-c2ccccc2N1
5.42

Fill in the recorded TGI for this compound, with HOP-92 NSCLC as test system: Cc1ccc2c3c1O[C@H]1c4nc5ccccc5cc4C[C@@]4(O)[C@@H](C2)N(CC2CC2)CC[C@]314
58.3

Fill in the recorded TGI for this compound, with HOP-92 NSCLC as test system: CCc1ccc(C2=C(O)C(=O)C(c3ccc(CC)cc3)=C(O)C2=O)cc1
4.33

Fill in the recorded TGI for this compound, with HOP-92 NSCLC as test system: NC1CCC(c2cc3ccccc3s2)(N2CCCCC2)CC1 (configuration not stated)
5.15

Fill in the recorded TGI for this compound, with HOP-92 NSCLC as test system: O=C1/C(=C\c2cccs2)Oc2ccccc21
89
